B1: r4_43_TrROS_Hall (parent)
chain: DLVTIKVPLENLEEIKKAAEKAGFKIVSISYDKENKEVTIVIEKKK

Variants of: B1
experiment: folding stability dG (cDNA display proteolysis); higher = more stable
cond: PBS, room temperature
reported.metric: folding stability dG (kcal/mol)

• DLVTIKVPLENLEEIKKAAEKAGFKIVSISYKKENKEVTIVIEKKK = 3.04
• DLVTIKVPLENLEEIKKAAEKAGFKIVSISYDKENKEVTIVIRKKK = 3.76
• DLVTIKVPLENLEWIKKAAEKAGFKIVSISYDKENKEVTIVIEKKK = 3.86
• DLVTIKVPLENLEEIKKAAEKAGFKIVSISYDKENKEVTIVIVKKK = 3.63
• DLVTIKVPLENLEEIKKAAEKAGFKIVSISYDKENKEVTIVIEKVK = 4.13
• DLVTIKVPLENLEEIKKAAEKMGFKIVSISYDKENKEVTIVIEKKK = 3.68
• DLVTIKVPLENLEEYKKAAEKAGFKIVSISYDKENKEVTIVIEKKK = 3.88
• KLVTIKVPLENLEEIKKAAEKAGFKIVSISYDKENKEVTIVIEKKK = 3.81
• DLVTIKVPLENLEEIKKAAEKAGFKIVSISYDKENKEVTIVQEKKK = 2.84
• DLVTYKVPLENLEEIKKAAEKAGFKIVSISYDKENKEVTIVIEKKK = 4.42
• DLVTIKVPLENLEEIKKAAEKAGFKAVSISYDKENKEVTIVIEKKK = 2.13
• DLVTIKVPLENLEEIKKAAEKAGFKIYSISYDKENKEVTIVIEKKK = 4.35
• DLVTIKVPLENLEEIKKAAEKAGFKIVSISYDKENKEVTITIEKKK = 3.42
• DLVTIKVPLENWEEIKKAAEKAGFKIVSISYDKENKEVTIVIEKKK = 3.67
• DLVTIKVPLENLEEIKKAAEKAGFKIVSISHDKENKEVTIVIEKKK = 3.41
• DLETIKVPLENLEEIKKAAEKAGFKIVSISYDKENKEVTIVIEKKK = 3.1
• DLVTIKVPLENLEEIKKAAEKAGFKIVSISADKENKEVTIVIEKKK = 3.06
• DLVTIKVPQENLEEIKKAAEKAGFKIVSISYDKENKEVTIVIEKKK = 3.49
• DLVTIKVPLENLEEIKKAAEKAGFKIVSISYDRENKEVTIVIEKKK = 3.93
• DLVTIKVPLENLEEIKKAAEKYGFKIVSISYDKENKEVTIVIEKKK = 3.95
• DLVTIKVPLENLEEIKEAAEKAGFKIVSISYDKENKEVTIVIEKKK = 3.45
• DLVTIKVPLENLEEIKKAAEKAGFKIVSISYDKENKEVWIVIEKKK = 4.01
• DLVTIKLPLENLEEIKKAAEKAGFKIVSISYDKENKEVTIVIEKKK = 3.51
• DLVTIKVPLENLEEIKKAAEKAGVKIVSISYDKENKEVTIVIEKKK = 2.74
• DLVTIYVPLENLEEIKKAAEKAGFKIVSISYDKENKEVTIVIEKKK = 3.48
• DLVTIKVPLENLEEIKKAAEHAGFKIVSISYDKENKEVTIVIEKKK = 3.78
• DLVTIKVPLKNLEEIKKAAEKAGFKIVSISYDKENKEVTIVIEKKK = 3.61
• DLVTIKVPLENLEEIKKAAEKAGFKIVSISYDKENKEVTIVIEKKD = 3.55
• DLVTIKVPLENLEEIKKAAEKAGFKIVSISYDTENKEVTIVIEKKK = 3.41
